# Assay: Enzyme screens for resolution of diastereomeric mixture CHLP(MEMC)/THLP(MEMC) (Example 13)
# Assay type: biochemical
# Experimental Setup: 0.050M each isomer; pH 7.0; 5 h; 5.0 to 50 mg/mL enzyme; 25° C.
Quantity Kind: % de (diastereomeric excess of the cis-L-isomer) (%)

Molecule: protease, trypsin bovine pancreas: commercial trypsin, source bovine pancreas (protein, UniProt P00760 24-246, looked up) Serine protease 1: IVGGYTCGANTVPYQVSLNSGYHFCGGSLINSQWVVSAAHCYKSGIQVRLGEDNINVVEGNEQFISASKSIVHPSYNSNTLNNDIMLIKLKSAASLNSRVASISLPTSCASAGTQCLISGWGNTKSSGTSYPDVLKCLKAPILSDSSCKSAYPGQITSNMFCAGYLEGGKDSCQGDSGGPVVCSGKLQGIVSWGSGCAQKNKPGVYTKVCNYVSWIKQTIASN
Readout Number: 0
--
Molecule: protease, trypsin porcine pancreas: commercial trypsin, source porcine pancreas (protein, UniProt P00761 9-231, looked up) Trypsin: IVGGYTCAANSIPYQVSLNSGSHFCGGSLINSQWVVSAAHCYKSRIQVRLGEHNIDVLEGNEQFINAAKIITHPNFNGNTLDNDIMLIKLSSPATLNSRVATVSLPRSCAAAGTECLISGWGNTKSSGSSYPSLLQCLKAPVLSDSSCKSSYPGQITGNMICVGFLEGGKDSCQGDSGGPVVCNGQLQGIVSWGYGCAQKNKPGVYTKVCNYVNWIQQTIAAN
Readout Number: 0
